normalized growth by entry:
- Assay details: chemical genetic growth profiling, strain panel (AID 1159580);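 further: tested at 20 µM; growth read once vehicle control cultures reached saturation at 30 °C; 1 = growth at the plate median or of vehicle wells; lower values mean less growth of the strain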
- Experimental conditions: S. cerevisiae deletion strains, growth OD, locus YNL298W, strain CLA4 (second series), active compounds read low
About 2,000 (36%) of roughly 5,500 compounds were called active. About 18% were inconclusive and are not listed. The list shows a part of the results.
Give the value as a plain number.

Solved entries (count: 5):
1) COc1ccc(OCC(N)=O)cc1: 1.03
2) FC(F)(F)c1cc(-n2c(CCc3nc(-c4ccc(Cl)cc4)no3)n[nH]c2=S)cc(C(F)(F)F)c1: 0.981
3) Cc1nn(Cc2n[nH]c(=S)o2)c(C)c1Br: 1.05
4) O=C(Nc1nccs1)c1ccc([N+](=O)[O-])cc1: 0.976
5) CCC(=O)c1c(C)c(C)c(C)c(C)c1C: 0.966

Documented normalized growth of `O=C(O)Cc1ccccc1I` : 1.07

Entry `CC(=O)Nc1ccc(S(=O)(=O)NC2Cc3ccccc3C2)cc1` , normalized growth reported as 1.04

In plain terms, `CC(=O)c1ccc(-c2ccc(Cl)c(Cl)c2)o1` has a documented normalized growth of 0.373

Entry `COc1ccc(C=C2C(=O)NC(=S)NC2=O)cc1Br` ; normalized growth = 1

// normalized growth lookup, compound = `O=C(Nc1nncs1)c1ccncc1` , result: 1.07

----------
- Assay details: chemical genetic growth profiling, strain panel (AID 1159580);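 further: tested at 20 µM; growth read once vehicle control cultures reached saturation at 30 °C; 1 = growth at the plate median or of vehicle wells; lower values mean less growth of the strain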
- Experimental conditions: S. cerevisiae deletion strains, growth OD, locus YNL298W, strain CLA4 (second series), active compounds read low
Out of some 5,500 compounds screened, about 2,000 (36%) were called active. Another 18% or so got no clear call; they are omitted. Some of the results follow.
Measured endpoint: normalized growth
# respond with the number and nothing more

Answered examples (6):
1. COc1cc(CC/C(C)=N/O)ccc1OCc1ccc(Cl)cc1Cl: 0.784
2. O=C(CSc1nnc(NC(=O)c2cccc([N+](=O)[O-])c2)s1)Nc1ccc2c(c1)OCO2: 1
3. Cc1cc(NS(=O)(=O)c2ccc(NS(=O)(=O)c3cc(C)c(Cl)cc3C)cc2)no1: 0.979
4. COC(=O)COc1ccc(C(C)=O)cc1: 0.977
5. Cc1ccc(S(=O)(=O)Nc2ccc(C)c([N+](=O)[O-])c2)cc1: 0.963
6. Cc1ccc2c(c1)N(CCO)C(C)(C)CC2C (stereo unspecified): 1.04

Summary for this compound, `COc1ccc(CNc2ccccc2-c2nc3ccccc3[nH]2)cc1` : normalized growth is 0.789

Sure, the documented normalized growth for `O=c1c2cc(NS(=O)(=O)c3ccc(Cl)cc3)ccc2oc2ncccc12` is 0.997

----------
- Assay details: chemical genetic growth profiling, strain panel (AID 1159580);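 further: tested at 20 µM; growth read once vehicle control cultures reached saturation at 30 °C; 1 = growth at the plate median or of vehicle wells; lower values mean less growth of the strain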
- Experimental conditions: S. cerevisiae deletion strains, growth OD, locus YBR009C, strain hhf1, active compounds read low
About 2,000 (36%) of roughly 5,500 compounds were called active. About 18% were inconclusive and are not listed. The list shows a part of the results.
Recorded normalized growth for the following compounds
Enter the number alone.

Consider the reported normalized growth for these compounds:
1. CN(C(=O)CN(CCO)CC(=O)N(C)C(C)(C)Cc1ccccc1)C(C)(C)Cc1ccccc1: 1.01
2. Nc1cc(C(Cl)=C(Cl)Cl)c(S(N)(=O)=O)cc1S(N)(=O)=O: 0.992
3. CC(CCC(=O)O)[C@H]1CCC2C3CC[C@@H]4C[C@H](O)CC[C@]4(C)C3CC[C@@]21C (stereo partly specified): 0.888

Entry `O=C(O)c1ccccc1C(=O)Nc1ccc(S(=O)(=O)Nc2nccs2)cc1` ; normalized growth = 0.994

Quick note, normalized growth for `CNC(=O)Oc1ccc2c(c1)[C@]1(C)CCN(C)[C@@H]1N2C` landed at 0.998

The measured normalized growth associated with `S=P(N1CC1)(N1CC1)N1CC1` reads 1.01

Taken from PubChem BioAssay AID1159580.
